tested_on: furin, P09958
Sequence (P09958 whole entry): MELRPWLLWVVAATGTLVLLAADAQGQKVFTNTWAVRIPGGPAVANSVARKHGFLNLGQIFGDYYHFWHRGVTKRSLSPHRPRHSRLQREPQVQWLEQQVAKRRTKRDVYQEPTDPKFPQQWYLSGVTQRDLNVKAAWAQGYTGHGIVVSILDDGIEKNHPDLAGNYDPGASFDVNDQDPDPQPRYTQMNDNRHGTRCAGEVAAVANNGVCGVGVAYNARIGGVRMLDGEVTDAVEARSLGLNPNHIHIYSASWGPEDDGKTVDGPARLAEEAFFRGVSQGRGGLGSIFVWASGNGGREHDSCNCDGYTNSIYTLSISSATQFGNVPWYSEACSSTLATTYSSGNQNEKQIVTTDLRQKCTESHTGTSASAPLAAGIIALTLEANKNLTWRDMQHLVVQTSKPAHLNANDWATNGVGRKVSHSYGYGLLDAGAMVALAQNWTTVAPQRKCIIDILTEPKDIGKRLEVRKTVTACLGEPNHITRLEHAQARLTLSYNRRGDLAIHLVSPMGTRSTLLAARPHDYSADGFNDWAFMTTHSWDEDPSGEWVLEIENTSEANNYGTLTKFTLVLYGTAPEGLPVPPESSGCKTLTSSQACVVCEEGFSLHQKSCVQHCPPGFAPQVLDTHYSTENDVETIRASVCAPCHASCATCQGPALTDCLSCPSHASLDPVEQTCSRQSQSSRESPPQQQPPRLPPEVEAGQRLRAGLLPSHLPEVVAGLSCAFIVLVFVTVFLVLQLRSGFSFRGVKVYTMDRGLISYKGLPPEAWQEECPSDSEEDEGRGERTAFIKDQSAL
protocol_text: furin cleavage Z-score vs untreated control; higher = more cleavage, active = 3.5 or more, inactive = 1 or less, 8 variable residues between constant flanks;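 also: purified furin at 1:10 enzyme:substrate in 50 mM HEPES pH 7.5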
applied_conditions: 30 min
The other results are listed elsewhere or left out. How many sequences the whole screen found active is unknown.
Reported values of furin cleavage Z-score for individual entries
Output spec: single numeric token, no unit.

Here is how some sequences turned out for furin cleavage Z-score.
1. CARLRRRTSHAGNASASA [FS-2716] : 4.1
2. CARDRRMMSQAGNASASA [FS-2653] : 0.367
3. CAPVCCSMSYAGNASASA [HC1999] : 1.74

In the following, a different sequence is considered.
Exercise: Could you share which furin cleavage Z-score value was measured for CAEVVTVTWVAGNASASA [HC143] ?
Solution: 0.0435
